Reference source for all entries: patent US9029377B2

# TARGET ENTITY: PAFR (Homo sapiens, UniProt P25105)
# Sequence (P25105 whole entry): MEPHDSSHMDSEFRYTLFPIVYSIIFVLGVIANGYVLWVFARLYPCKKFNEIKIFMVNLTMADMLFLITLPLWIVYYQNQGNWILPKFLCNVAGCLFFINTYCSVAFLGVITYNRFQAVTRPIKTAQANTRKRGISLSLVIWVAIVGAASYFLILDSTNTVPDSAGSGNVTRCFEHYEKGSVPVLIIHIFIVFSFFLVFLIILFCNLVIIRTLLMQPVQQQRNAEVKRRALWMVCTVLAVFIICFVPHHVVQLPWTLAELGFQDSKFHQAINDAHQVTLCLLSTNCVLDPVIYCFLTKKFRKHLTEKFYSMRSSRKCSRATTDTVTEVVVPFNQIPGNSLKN
pIC50: −log10 of the molar value.
Cut-off 8 on pIC50, inclusive. At or above means 1.0; below means 0.0.

Here are 5 compounds together with their reported answers.
SMILES: CCc1cc(-c2cnc(N)nc2)ccc1S(=O)(=O)N[C@H]1CCC[C@@H](n2cnnc2)C1
TARGET ENTITY: PAFR (Homo sapiens, UniProt P25105)
LABEL: 0.0

SMILES: CCCCOc1ccc(S(=O)(=O)N[C@H]2CCC[C@@H](n3cnnc3C3CC3)C2)cc1F
TARGET ENTITY: PAFR (Homo sapiens, UniProt P25105)
LABEL: 1.0

SMILES: O=S(=O)(N[C@H]1CCC[C@@H](n2cnnc2)C1)c1ccc(-c2ccc(OCC(F)(F)F)nc2)cc1F
TARGET ENTITY: PAFR (Homo sapiens, UniProt P25105)
LABEL: 1.0

SMILES: Cc1nncn1[C@@H]1CCC[C@H](NS(=O)(=O)c2ccc(-n3ccc(C4CC4)n3)cc2)C1
TARGET ENTITY: PAFR (Homo sapiens, UniProt P25105)
LABEL: 0.0

SMILES: O=S(=O)(N[C@H]1CCC[C@@H](n2cnnc2)C1)c1cccc(-c2ccccc2)c1
TARGET ENTITY: PAFR (Homo sapiens, UniProt P25105)
LABEL: 0.0

Lab note: next compound to report on.
Query: Identify whether the reported pIC50 of the following compound is 8 or greater: `CCc1cc(-c2cccn3ccnc23)ccc1S(=O)(=O)N[C@H]1CCC[C@@H](n2cnnc2)C1`
Result: 1.0
